The compounds listed here are annotated with their LC50.
Test system: zebrafish embryos
Experiment: Zebrafish embryo acute toxicology
Format: in vivo, Danio rerio
Settings: zebrafish embryos, 96 hpf
assay-metric: LC50 (µM)

INSERT INTO results (sample_smiles, measure_unit, result_value) VALUES
  ('[Cl-].[Cl-].[Pt+2].[Ru+2].c1ccc(-c2nccnc2-c2ccccn2)nc1.c1cnc2c(c1)ccc1cccnc12.c1cnc2c(c1)ccc1cccnc12', 'µM', 65.2),
  ('[Cl-].[Cl-].[Pt+2].[Ru+2].c1ccc(-c2nc3ccccc3nc2-c2ccccn2)nc1.c1cnc2c(c1)ccc1cccnc12.c1cnc2c(c1)ccc1cccnc12', 'µM', 96.3),
  ('[Cl-].[Cl-].[Pt+2].[Ru+2].c1ccc(-c2nc3cc4ccccc4cc3nc2-c2ccccn2)nc1.c1cnc2c(c1)ccc1cccnc12.c1cnc2c(c1)ccc1cccnc12', 'µM', 149);
